Overview of recorded koff for various binders
EXPERIMENTAL_TARGET: T1, human LAG3 (form used in Octet, Biacore and HDX-MS not given) (human, UniProt P18627 23-450, limits assumed)
T1 sequence (looked up): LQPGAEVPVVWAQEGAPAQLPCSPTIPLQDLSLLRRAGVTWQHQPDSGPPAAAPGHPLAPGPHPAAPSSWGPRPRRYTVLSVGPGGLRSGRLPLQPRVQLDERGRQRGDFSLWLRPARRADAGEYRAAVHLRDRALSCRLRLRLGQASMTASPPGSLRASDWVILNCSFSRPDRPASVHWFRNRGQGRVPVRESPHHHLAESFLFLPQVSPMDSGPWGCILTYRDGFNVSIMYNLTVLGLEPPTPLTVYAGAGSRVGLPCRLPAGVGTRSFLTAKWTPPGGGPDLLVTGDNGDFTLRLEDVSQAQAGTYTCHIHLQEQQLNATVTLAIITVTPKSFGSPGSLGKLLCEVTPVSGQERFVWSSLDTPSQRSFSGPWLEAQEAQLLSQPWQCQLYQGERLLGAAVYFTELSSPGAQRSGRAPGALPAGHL
ASSAY_DETAILS: BLI (Octet), 1:1 fit

BINDER	UNITS_OF_MEASURE	koff
hu029.55.S93Q (antibody, V domains shown) VH: QVQLVESGGGLVKPGGSLRLSCAASGFTFSSYAMSWIRQAPGKGLEWVSYVTSGGDYIYYADTVKGRFTISRDDAKNSLYLQMNSLRAEDTAVYYCTRVAYDYEWYFDVWGQGTLVTVSS VL: DIQMTQSPSSVSASVGDRVTITCKASQDVTTAVAWYQQKPGKAPKLLIYSASYRYTGVPSRFSGSGSGTDFTLTISSLQPEDFATYYCQQHDQSPWTFGQGTKLEIK	s⁻¹	0.0207
hu029.53 (antibody, V domains shown, humanized from 029c) VH: QVQLVESGGGLVKPGGSLRLSCAASGFTFSSYAMSWIRQAPGKGLEWVAYVTSGGDYIYYADTVKGRFTISRDDAKNSLYLQMNSLRAEDTAMYYCTRVAYDYEWYFDVWGQGALVTVSS VL: DIQMTQSPSSVSASVGDRVTITCKASQDVTTAVAWYQQKPGKAPKLLIYSASYRYTGVPSRFSGSGSGTDFTLTISSLQPEDFATYYCQQHDSSPWTFGQGTKLEIK	s⁻¹	0.0217
